Target: Voltage-gated L-type calcium channel (Rattus norvegicus, UniProt P22002+Q02485+P27732)
Assay: Percentage decrease in blood pressure at a dose of 135 uM/kg for 6-12 hr in spontaneously hypertensive rats.
Assay type: functional, tissue-based
assay.endpoint: Decrease in blood pressure (%)
Give bare numbers, in %.

smiles.representation	unit.name	Decrease in blood pressure
COc1ccc([C@@H]2Cc3cc(OC(=O)C(C)(C)C)ccc3N(CCN(C)C)C(=O)[C@@H]2OC(C)=O)cc1	%	14
CSc1ccc([C@@H]2Cc3c(cccc3C(F)(F)F)N(CCN(C)C)C(=O)[C@@H]2C)cc1	%	8

# context switch: different compound, same Decrease in blood pressure
Given the compound COc1ccc([C@@H]2Cc3c(cccc3C(F)(F)F)N(CCCN(C)C)C(=O)[C@@H]2C)cc1 , write its reported Decrease in blood pressure.
22

----------
Biological target: Voltage-gated L-type calcium channel (Rattus norvegicus, UniProt P22002+Q02485+P27732)
Experiment: Percentage decrease in blood pressure at a dose of 135 uM/kg for 12-18 hr in spontaneously hypertensive rats.
Assay type: functional, tissue-based
Decrease in blood pressure vs 10%: at or above is MET, below is NOT MET.

Known results for compounds:
smiles.representation	discrete.label
COc1ccc([C@@H]2Cc3c(ccc(Br)c3OC)N(CCN(C)C)C(=O)[C@@H]2OC(C)=O)cc1	MET
COc1ccc([C@@H]2Cc3c(cccc3C(F)(F)F)N(CCN(C)C)C(=O)[C@@H]2O)cc1	MET
COc1ccc([C@@H]2Cc3c(cccc3C(F)(F)F)N(CCN(C)C(C)C)C(=O)[C@@H]2C)cc1	MET

Now for a further compound.
Could you tell me if the measured Decrease in blood pressure of C[C@H]1C(=O)N(CCN(C)C)c2cccc(C(F)(F)F)c2C[C@H]1c1ccc(O)cc1 reaches 10% or more?
NOT MET

----------
Assay: Concentration required to cause 50% relaxation of maximal contraction in circumferential rabbit aorta strips in response to KCl (100 mM)
Format: functional, tissue-based, Oryctolagus cuniculus
Conditions: Oryctolagus cuniculus, Aorta
assay.endpoint: IC50 (µM)
Give bare numbers, in µM.

smiles.representation	assay.endpoint	unit.name	readout.value
COc1ccc([C@@H]2Cc3c(C(=O)OCc4ccccc4)cccc3N(CCN(C)C)C(=O)[C@@H]2OC(C)=O)cc1	IC50	µM	3.5
COc1ccc([C@@H]2Cc3c(cccc3[N+](=O)[O-])N(CCN(C)C)C(=O)[C@@H]2OC(C)=O)cc1	IC50	µM	0.37
CC[C@H]1C(=O)N(CCN(C)C)c2cccc(C(F)(F)F)c2C[C@H]1c1ccc(OC)cc1	IC50	µM	0.012
COc1ccc([C@@H]2Cc3cc(SC)ccc3N(CCN(C)C)C(=O)[C@@H]2OC(C)=O)cc1	IC50	µM	0.6
COc1ccc([C@@H]2Cc3c(cccc3C(F)(F)F)N(CCN(C)CCCCc3ccccc3)C(=O)[C@@H]2OC(C)=O)cc1	IC50	µM	0.073
COc1ccc([C@@H]2Cc3c(cccc3C(F)(F)F)N(CCN3CCCC3)C(=O)[C@@H]2C)cc1	IC50	µM	1.1
COc1ccc([C@@H]2Cc3cc(OC(F)F)ccc3N(CCN(C)C)C(=O)[C@@H]2OC(C)=O)cc1	IC50	µM	0.96
COc1ccc([C@@H]2Cc3cc(C(F)(F)F)ccc3N(CCN(C)C)C(=O)[C@@H]2NC(C)=O)cc1	IC50	µM	9.2
C=CCN(C)CCN1C(=O)[C@H](OC(C)=O)[C@H](c2ccc(OC)cc2)Cc2c1cccc2C(F)(F)F	IC50	µM	0.17
COc1ccc([C@@H]2Cc3c(cccc3C(F)(F)F)N(CCCN(C)C)C(=O)[C@@H]2C)cc1	IC50	µM	1.1

Go through the list and state IC50 for each entry.
1. COc1ccc([C@@H]2Cc3c(C#N)cccc3N(CCN(C)C)C(=O)[C@@H]2OC(C)=O)cc1
2. COc1ccc([C@@H]2Cc3cc(Oc4ccccc4)ccc3N(CCN(C)C)C(=O)[C@@H]2OC(C)=O)cc1

[0.12, 0.44]

Hi there! I need IC50 for each item below, if you can.
1. COc1ccc([C@@H]2Cc3cc(C(F)(F)F)ccc3N(CCN(C)C)C(=O)[C@@H]2SC(C)=O)cc1
2. COc1ccc([C@@H]2Cc3cc(Sc4ccccc4)ccc3N(CCN(C)C)C(=O)[C@@H]2OC(C)=O)cc1
3. CCCN(C)CCN1C(=O)[C@H](OC(C)=O)[C@H](c2ccc(OC)cc2)Cc2c1cccc2C(F)(F)F
4. C#CCN(C)CCN1C(=O)[C@H](OC(C)=O)[C@H](c2ccc(OC)cc2)Cc2c1cccc2C(F)(F)F
5. COc1ccc([C@@H]2Cc3cc(OCc4ccccc4)ccc3N(CCN(C)C)C(=O)[C@@H]2OC(C)=O)cc1
6. COc1ccc([C@@H]2Cc3c(cccc3C(F)(F)F)N(CC[N+](C)(C)C)C(=O)[C@@H]2C)cc1.[I-]
7. COc1ccc([C@@H]2Cc3cc(SC(C)(C)C)ccc3N(CCN(C)C)C(=O)[C@@H]2OC(C)=O)cc1

1: 0.068; 2: 0.69; 3: 0.19; 4: 3.3; 5: 0.73; 6: 6.2; 7: 9

----------
Experiment: Concentration required to cause 50% relaxation of maximal contraction in circumferential rabbit aorta strips in response to KCl (100 mM)
Type: functional, tissue-based, Oryctolagus cuniculus
Conditions: Oryctolagus cuniculus, Aorta
pIC50: −log10 of the molar value.
Assign class by pIC50: not lower than 6 means TRUE; lower than 6 means FALSE.

Check this molecule for pIC50 at or above 6: COc1ccc([C@@H]2Cc3c(cccc3C(F)(F)F)N(CCN(C)C(C)=O)C(=O)[C@@H]2O)cc1
FALSE

Evaluate CNCCN1C(=O)[C@H](OC(C)=O)[C@H](c2ccc(OCCOC)cc2)Cc2c1cccc2C(F)(F)F : pIC50 at minimum 6?
FALSE

Is it the case that COc1ccc([C@@H]2Cc3cc(OC(=O)C(C)(C)C)ccc3N(CCN(C)C)C(=O)[C@@H]2OC(C)=O)cc1 has pIC50 reaching or exceeding 6?
FALSE

// inclusive: pIC50 at least 6? input: COc1ccc([C@@H]2Cc3c(cccc3C(F)(F)F)N(CCN(C)C(C)=O)C(=O)[C@@H]2OC(C)=O)cc1
FALSE

Please indicate if the recorded pIC50 for COc1ccc([C@@H]2Cc3c(cccc3C(F)(F)F)N(CCN(C(C)C)C(C)C)C(=O)[C@@H]2C)cc1 meets or exceeds 6.
FALSE

For this molecule, is measured pIC50 6 or higher? COc1ccc([C@@H]2Cc3c(cccc3C(F)(F)F)N(CCN(C)C)C(=O)[C@@H]2OC(C)=O)cc1
TRUE

----------
Assay: Concentration required to cause 50% relaxation of maximal contraction in circumferential rabbit aorta strips in response to KCl (100 mM)
Format: functional, tissue-based, Oryctolagus cuniculus
Conditions: Oryctolagus cuniculus, Aorta
For each record, write down the corresponding log10 IC50.
Response schema: value (number) is log10 of IC50 in units of nM.

Consider the following illustrative entries.
compound	readout.value
COc1ccc([C@@H]2Cc3c(cccc3C(F)(F)F)N(CC(C)N(C)C)C(=O)[C@@H]2C)cc1 (stereo in doubt; 15l)	2.56
COc1ccc([C@@H]2Cc3c(cccc3C(F)(F)F)N(CCN(C)C)C(=O)[C@@H]2Cc2ccccc2)cc1	2.90
CNC(=O)Oc1ccc2c(c1)C[C@@H](c1ccc(OC)cc1)[C@@H](OC(C)=O)C(=O)N2CCN(C)C	2.49
CCC[C@H]1C(=O)N(CCN(C)C)c2ccccc2C[C@H]1c1ccc(OC)cc1	2.53
COc1ccc([C@@H]2Cc3c(cccc3C(F)(F)F)N(CCNC(C)C)C(=O)[C@@H]2C)cc1	2.98

Each compound below has a recorded value; state its log10 IC50.
1. COc1ccc([C@@H]2Cc3c(ccc(Br)c3OC)N(CCN(C)C)C(=O)[C@@H]2C)cc1
2. CCc1ccc([C@@H]2Cc3c(cccc3C(F)(F)F)N(CCN(C)C)C(=O)[C@@H]2C)cc1
3. COc1ccc([C@@H]2Cc3c(cccc3C(F)(F)F)N(CCN(C)C)C(=O)[C@@H]2C)cc1

1: 1.93; 2: 3.38; 3: 1.88

----------
Assignment: determine reported Decrease in blood pressure for the given molecules.
Target: Voltage-gated L-type calcium channel (Rattus norvegicus, UniProt P22002+Q02485+P27732)
Test: Percentage decrease in blood pressure at a dose of 135 uM/kg for 6-12 hr in spontaneously hypertensive rats.
Type: functional, tissue-based
Give bare numbers, in %.

Worked examples follow.
molecule	target.or.test.system	unit.name	Decrease in blood pressure
CCc1ccc([C@@H]2Cc3c(cccc3C(F)(F)F)N(CCN(C)C)C(=O)[C@@H]2C)cc1	Voltage-gated L-type calcium channel (Rattus norvegicus, UniProt P22002+Q02485+P27732)	%	14
COc1ccc([C@@H]2Cc3c(OC)cccc3N(CCN(C)C)C(=O)[C@@H]2C)cc1	Voltage-gated L-type calcium channel (Rattus norvegicus, UniProt P22002+Q02485+P27732)	%	10
CCCN(C)CCN1C(=O)[C@H](OC(C)=O)[C@H](c2ccc(OC)cc2)Cc2c1cccc2C(F)(F)F	Voltage-gated L-type calcium channel (Rattus norvegicus, UniProt P22002+Q02485+P27732)	%	26
COc1ccc([C@@H]2Cc3cc(OC)ccc3N(CCN(C)C)C(=O)[C@@H]2OC(C)=O)cc1	Voltage-gated L-type calcium channel (Rattus norvegicus, UniProt P22002+Q02485+P27732)	%	8
COc1ccc([C@@H]2Cc3c(cccc3C(F)(F)F)N(CC(C)N(C)C)C(=O)[C@@H]2C)cc1 (stereo in doubt; 15l)	Voltage-gated L-type calcium channel (Rattus norvegicus, UniProt P22002+Q02485+P27732)	%	17
COc1ccc([C@@H]2Cc3c(C(N)=O)cccc3N(CCN(C)C)C(=O)[C@@H]2OC(C)=O)cc1	Voltage-gated L-type calcium channel (Rattus norvegicus, UniProt P22002+Q02485+P27732)	%	12
COc1ccc([C@@H]2Cc3c(cccc3C(F)(F)F)N(CCN(C)C)C(=O)[C@@H]2O)cc1	Voltage-gated L-type calcium channel (Rattus norvegicus, UniProt P22002+Q02485+P27732)	%	26

Next molecule, please.
Tell me Decrease in blood pressure of COc1ccc([C@@H]2Cc3c(cccc3[N+](=O)[O-])N(CCN(C)C)C(=O)[C@@H]2OC(C)=O)cc1 when tested on Voltage-gated L-type calcium channel (Rattus norvegicus, UniProt P22002+Q02485+P27732).
12
